# Test target: human neuronal constitutive NOS (nNOS) (Homo sapiens, UniProt P29475)
# Sequence (P29475 whole entry): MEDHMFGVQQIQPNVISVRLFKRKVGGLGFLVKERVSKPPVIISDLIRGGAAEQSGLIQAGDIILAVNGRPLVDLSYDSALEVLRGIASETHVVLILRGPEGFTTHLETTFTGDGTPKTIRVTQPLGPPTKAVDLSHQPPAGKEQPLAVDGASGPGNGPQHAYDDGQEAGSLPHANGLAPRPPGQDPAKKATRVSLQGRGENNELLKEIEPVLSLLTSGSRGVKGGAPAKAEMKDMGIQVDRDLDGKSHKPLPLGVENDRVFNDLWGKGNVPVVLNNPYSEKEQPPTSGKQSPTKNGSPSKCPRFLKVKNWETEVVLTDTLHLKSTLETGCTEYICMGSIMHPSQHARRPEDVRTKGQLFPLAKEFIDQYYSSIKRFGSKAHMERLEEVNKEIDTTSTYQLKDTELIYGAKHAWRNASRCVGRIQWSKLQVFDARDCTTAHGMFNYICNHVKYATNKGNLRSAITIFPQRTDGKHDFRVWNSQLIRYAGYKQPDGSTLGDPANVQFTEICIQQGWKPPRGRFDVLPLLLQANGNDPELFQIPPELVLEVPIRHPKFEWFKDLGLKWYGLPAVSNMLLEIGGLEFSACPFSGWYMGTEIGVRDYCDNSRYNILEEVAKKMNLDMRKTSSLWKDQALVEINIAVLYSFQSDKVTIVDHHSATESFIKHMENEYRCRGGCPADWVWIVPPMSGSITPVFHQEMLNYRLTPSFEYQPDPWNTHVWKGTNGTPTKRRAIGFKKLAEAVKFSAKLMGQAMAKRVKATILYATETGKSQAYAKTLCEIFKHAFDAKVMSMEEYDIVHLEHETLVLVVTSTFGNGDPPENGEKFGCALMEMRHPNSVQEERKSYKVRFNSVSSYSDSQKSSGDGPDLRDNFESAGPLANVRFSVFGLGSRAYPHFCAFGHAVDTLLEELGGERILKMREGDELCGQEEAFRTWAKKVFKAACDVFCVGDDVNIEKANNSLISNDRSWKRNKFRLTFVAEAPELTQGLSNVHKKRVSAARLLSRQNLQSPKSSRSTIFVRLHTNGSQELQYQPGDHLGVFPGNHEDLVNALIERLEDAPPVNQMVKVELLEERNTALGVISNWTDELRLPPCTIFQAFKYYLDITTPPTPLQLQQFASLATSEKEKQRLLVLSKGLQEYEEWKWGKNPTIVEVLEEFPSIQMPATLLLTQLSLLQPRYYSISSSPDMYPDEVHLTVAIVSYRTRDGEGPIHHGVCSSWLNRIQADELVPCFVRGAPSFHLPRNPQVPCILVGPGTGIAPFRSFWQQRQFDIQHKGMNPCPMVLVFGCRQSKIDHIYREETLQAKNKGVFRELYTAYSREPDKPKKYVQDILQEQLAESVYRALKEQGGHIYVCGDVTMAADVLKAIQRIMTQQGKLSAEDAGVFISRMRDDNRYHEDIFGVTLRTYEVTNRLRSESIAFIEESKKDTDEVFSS
# Method summary: nNOS (Human) enzyme assay, radiometric conversion of [3H]L-arginine to [3H]L-citrulline
# Format: biochemical
# Conditions used: recombinant human enzyme, 37° C., 45 min; read-out: Human nNOS
pIC50: −log10 of the molar value.

Compound	pIC50
N=C(Nc1ccc2c(ccn2C2CCOCC2)c1)c1cccs1 [Compound 90]	5.98
CN1CCCC(n2ccc3cc(NC(=N)c4cccs4)ccc32)CC1 (stereo not shown) [Compound 58]	6.92
N=C(Nc1ccc2c(ccn2-c2cccnc2)c1)c1cccs1 [Compound 74]	6.42
Cc1cc2cc(NC(=N)c3cccs3)ccc2n1CCN(C)C [Compound 25]	6.09
CCNC1CC=C(c2c[nH]c3cc(NC(=N)c4cccs4)ccc23)CC1 (stereo not shown) [Compound 132]	6.14
Cc1cc2cc(NC(=N)c3cccs3)ccc2n1CCN1CCCC1 [Compound 28]	6.70
CNC1CC=C(c2c[nH]c3cc(NC(=N)c4cccs4)ccc23)CC1 (stereo not shown) [Compound 125]	6.35
CN1CCC[C@H]1Cn1ccc2cc(NC(=N)c3cccs3)ccc21 [Compound 104]	6.96
CN1CC=C(c2c[nH]c3cc(NC(=N)c4cccs4)ccc23)CC1 [Compound 107]	5.96
CN1CCCC1CCn1c(Cc2ccccc2)cc2cc(NC(=N)c3cccs3)ccc21 (stereo not shown) [Compound 6]	6.72
N=C(Nc1ccc2c(c1)cc(-c1ccc([N+](=O)[O-])cc1)n2CCN1CCCCC1)c1cccs1 [Compound 18]	6.39
CCCN[C@H]1CC[C@H](c2c[nH]c3cc(NC(=N)c4cccs4)ccc32)CC1 [Compound 138]	6.14
CCNC1CCC(c2c[nH]c3cc(NC(=N)c4cccs4)ccc23)CC1 (stereo not shown) [Compound 129]	6.59
N=C(Nc1ccc2c(ccn2C2CN3CCC2CC3)c1)c1cccs1 (stereo not shown) [Compound 71]	6.44
CN1CCCC1CCn1c(Cc2ccc(OC(F)(F)F)cc2)cc2cc(NC(=N)c3cccs3)ccc21 (stereo not shown) [Compound 14]	6.51
N=C(Nc1ccc2c(ccn2CCN2CCCCC2)c1)c1cccs1 [Compound 96]	6.77
N=C(Nc1ccc2c(C3=CN4CCC3CC4)c[nH]c2c1)c1cccs1 [Compound 111]	5.82
CN(C)CCn1ccc2cc(NC(=N)c3cccs3)ccc21 [Compound 93]	6.77
CN1CCCCC1CCn1ccc2cc(NC(=N)c3cccs3)ccc21 (stereo not shown) [Compound 62]	7.05

###

# Test target: human neuronal constitutive NOS (nNOS) (Homo sapiens)
# Method summary: nNOS (Human) enzyme assay, radiometric conversion of [3H]L-arginine to [3H]L-citrulline
# Format: biochemical
# Conditions used: recombinant human enzyme, 37° C., 45 min; read-out: Human nNOS
Rule: measured IC50 below 700 nM gets Fulfilled; anything equal to or greater than 700 nM gets Not fulfilled.

Compound	Class
CN1CCCC1CCn1ccc2cc(NC(=N)N[N+](=O)[O-])ccc21 (centres unmarked)	Not fulfilled
CN1CCCC1CCn1ccc2cc(CNC(=N)c3cccs3)ccc21 (centres unmarked)	Not fulfilled
CN1CCC(c2c[nH]c3cc(NC(=N)c4cccs4)ccc23)C1 (centres unmarked)	Fulfilled
N=C(Nc1ccc2c(ccn2-c2ccc(N)nc2)c1)c1cccs1	Fulfilled
N=C(Nc1ccc2c(ccn2CCCNC2CC2)c1)c1cccs1	Fulfilled
CN1CCCC1CCn1c(-c2ccc([N+](=O)[O-])cc2)cc2cc(NC(=N)c3cccs3)ccc21 (centres unmarked)	Not fulfilled
CC(C)NC1CCC(c2c[nH]c3cc(NC(=N)c4cccs4)ccc23)CC1 (centres unmarked)	Fulfilled
CN1C2CCC1CC(n1ccc3cc(NC(=N)c4cccs4)ccc31)C2 (centres unmarked)	Not fulfilled
N=C(Nc1ccc2c(ccn2CCCNC23CC4CC(CC(C4)C2)C3)c1)c1cccs1	Fulfilled
N=C(Nc1ccc2c(ccn2CCCN2CCOCC2)c1)c1cccs1	Fulfilled
